SUBJECT OF TEST: intracellular GCN2 (phosphorylation of the GCN2 substrate eIF2α) (Homo sapiens)
Sequence (Q9P2K8 whole entry): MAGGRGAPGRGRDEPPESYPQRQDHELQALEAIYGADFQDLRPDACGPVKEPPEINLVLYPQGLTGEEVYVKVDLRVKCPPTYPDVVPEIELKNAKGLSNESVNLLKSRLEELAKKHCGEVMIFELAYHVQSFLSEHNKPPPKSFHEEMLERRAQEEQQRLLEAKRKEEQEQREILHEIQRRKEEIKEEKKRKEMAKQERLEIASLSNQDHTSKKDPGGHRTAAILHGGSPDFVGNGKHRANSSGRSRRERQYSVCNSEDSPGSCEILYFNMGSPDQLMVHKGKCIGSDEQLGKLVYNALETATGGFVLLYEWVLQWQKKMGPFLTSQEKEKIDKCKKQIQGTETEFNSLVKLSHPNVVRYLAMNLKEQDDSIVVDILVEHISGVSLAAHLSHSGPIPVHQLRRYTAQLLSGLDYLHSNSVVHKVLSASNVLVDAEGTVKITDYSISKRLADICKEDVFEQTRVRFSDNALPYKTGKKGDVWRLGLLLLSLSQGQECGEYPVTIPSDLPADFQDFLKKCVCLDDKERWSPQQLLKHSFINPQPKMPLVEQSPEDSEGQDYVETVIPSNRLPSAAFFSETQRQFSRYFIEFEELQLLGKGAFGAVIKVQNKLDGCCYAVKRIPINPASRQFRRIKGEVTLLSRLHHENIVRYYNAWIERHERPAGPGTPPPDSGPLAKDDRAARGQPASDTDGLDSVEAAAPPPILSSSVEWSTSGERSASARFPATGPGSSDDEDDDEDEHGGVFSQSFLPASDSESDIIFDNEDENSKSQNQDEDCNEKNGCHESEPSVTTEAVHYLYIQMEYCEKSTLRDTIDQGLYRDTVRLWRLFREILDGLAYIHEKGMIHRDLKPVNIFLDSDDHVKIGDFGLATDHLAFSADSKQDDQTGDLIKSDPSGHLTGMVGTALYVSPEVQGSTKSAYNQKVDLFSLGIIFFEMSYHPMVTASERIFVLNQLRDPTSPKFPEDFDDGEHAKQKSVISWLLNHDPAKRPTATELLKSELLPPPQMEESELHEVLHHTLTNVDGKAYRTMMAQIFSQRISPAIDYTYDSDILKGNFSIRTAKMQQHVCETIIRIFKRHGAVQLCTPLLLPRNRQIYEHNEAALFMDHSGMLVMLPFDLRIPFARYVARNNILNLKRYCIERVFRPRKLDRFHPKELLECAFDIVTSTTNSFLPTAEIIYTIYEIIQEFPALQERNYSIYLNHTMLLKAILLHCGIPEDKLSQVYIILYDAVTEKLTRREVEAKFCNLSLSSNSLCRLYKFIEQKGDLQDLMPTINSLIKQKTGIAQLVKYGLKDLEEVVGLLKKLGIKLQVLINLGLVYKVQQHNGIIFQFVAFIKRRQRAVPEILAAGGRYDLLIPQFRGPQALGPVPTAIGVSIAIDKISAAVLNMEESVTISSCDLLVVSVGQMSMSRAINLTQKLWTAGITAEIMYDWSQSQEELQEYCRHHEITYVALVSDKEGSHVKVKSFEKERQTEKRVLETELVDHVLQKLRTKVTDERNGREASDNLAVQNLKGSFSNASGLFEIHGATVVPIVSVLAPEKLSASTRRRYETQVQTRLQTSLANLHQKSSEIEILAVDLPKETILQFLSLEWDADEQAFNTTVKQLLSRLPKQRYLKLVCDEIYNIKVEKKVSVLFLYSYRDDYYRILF
PROTOCOL NOTES: GCN2 cellular inhibition assay (AlphaScreen SureFire P-eIF2α Ser51, borrelidin-treated U2OS cells)
Format: cell-based
CONDITION SET: compounds of Formula IV; biomarker assay, phosphorylated eIF2α Ser51 in borrelidin-treated U2OS cells
Each item that follows carries a reported IC50.

Some compounds with recorded IC50:
>  <COMPOUND>
CC(NS(C)(=O)=O)C1CN(c2ccnc(-c3cnc4cnc(C(F)F)cn34)n2)CCO1 (centres unmarked) [IV-61]

>  <IC50>
> 5 µM

$$$$
>  <COMPOUND>
Cc1[nH]ncc1C1CN(c2ccnc(-c3cnc4cnc(C(F)(F)F)cn34)n2)CC(C)N1 (single isomer, unassigned) [IV-459]

>  <IC50>
0.5 to 5 µM

$$$$

For intracellular GCN2 (phosphorylation of the GCN2 substrate eIF2α) (Homo sapiens), provide IC50 of CC1C(c2cn[nH]c2)CCCN1c1nccc(-c2cnc3cnc(C(F)(F)F)cn23)n1 (centres unmarked) please.
< 0.5 µM

For intracellular GCN2 (phosphorylation of the GCN2 substrate eIF2α) (Homo sapiens), provide IC50 of C[C@H]1[C@@H](c2cn[nH]c2)OCCN1c1ccnc(-c2cnc3cnc(C(F)(F)F)cn23)n1 (racemic) please.
< 0.5 µM
